Assay: log P by HPLC on reversed-phase column (C18), EEC Directive 79/831 Annex V.A8
Type: physicochemical
Conditions: C18, 40° C., 0.1% aqueous formic acid and acetonitrile, gradient 10% to 90% acetonitrile
logP vs 2: less than gives condition met; not less than gives condition not met.

The examples below pair each entry with its known result.
Hello, I'm reviewing records and need to know if logP of CCc1nn(C)c(F)c1C(=O)N(C1CC1)C(C)c1ncc(Cl)cc1Cl (stereo not shown) is below 2. Could you check?
condition not met

Hello, I'm reviewing records and need to know if logP of Cc1cc(C(=O)N(C2CC2)C(C)c2cnccn2)no1 (stereo not shown) is below 2. Could you check?
condition met

Hello, I'm reviewing records and need to know if logP of O=C(c1ccsc1I)N(Cc1ccc(Cl)nc1)C1CC1 is below 2. Could you check?
condition not met

Hello, I'm reviewing records and need to know if logP of Cc1nc(C(F)(F)F)c(C(=O)N(Cc2ccc(Cl)cn2)C2CC2)s1 is below 2. Could you check?
condition not met

Hello, I'm reviewing records and need to know if logP of Cc1cc(C(=O)N(C2CC2)C(C)c2cnc(Cl)c(Cl)c2)c(C)o1 (stereo not shown) is below 2. Could you check?
condition not met

Hello, I'm reviewing records and need to know if logP of COc1ccc(CN(C(=O)c2ccsc2I)C2CC2)cn1 is below 2. Could you check?
condition not met

Hello, I'm reviewing records and need to know if logP of COc1ccnc(CN(C(=O)c2ccsc2I)C2CC2)c1OC is below 2. Could you check?
condition met

Hello, I'm reviewing records and need to know if logP of COc1nn(C)cc1C(=O)N(Cc1ncc(Cl)cc1Cl)C1CC1 is below 2. Could you check?
condition not met

More entries:
Hello, I'm reviewing records and need to know if logP of COc1ccc(CN(C(=O)c2cc(C)n(C)n2)C2CC2)cn1 is below 2. Could you check?
condition met

Hello, I'm reviewing records and need to know if logP of CCOc1nn(C)cc1C(=O)N(Cc1ncc(Cl)cc1Cl)C1CC1 is below 2. Could you check?
condition not met

====

Assay: log P by HPLC on reversed-phase column (C18), EEC Directive 79/831 Annex V.A8
Type: physicochemical
Details: C18, 40° C., 0.1% aqueous formic acid and acetonitrile, gradient 10% to 90% acetonitrile
QUANTITY_KIND: logP
Give bare numbers.

Solved entries (count: 2):
For the molecule Cc1nc(C(F)(F)F)c(C(=O)N(Cc2ncc(Cl)cc2Cl)C2CC2)s1 , give its reported logP.
3.76

For the molecule Cn1cc(C(=O)N(Cc2ncc(Cl)cc2Cl)C2CC2)c(C(F)(F)F)n1 , give its reported logP.
3.21

Answer for every listed entry: what is its logP? The entries follow.
1. COc1ccc(CN(C(=O)c2c(C)nn(C)c2F)C2CC2)cn1
2. O=C(c1sccc1I)N(Cc1ncc(Cl)cc1Cl)C1CC1
3. Cc1nc(C(F)(F)F)ccc1CN(C(=O)c1cn(C)nc1C(F)(F)F)C1CC1
4. Cn1cc(C(=S)N(Cc2c(Cl)cncc2Cl)C2CC2)c(C(F)F)n1

1.64
4.16
2.82
2.93

Answer for every listed entry: what is its logP? The entries follow.
1. Cn1cc(C(=O)N(Cc2ccncc2)C2CC2)c(C(F)(F)F)n1
2. Cc1ncoc1C(=O)N(Cc1c(Cl)cncc1Cl)C1CC1
3. Cc1ccoc1C(=O)N(C1CC1)C(C)c1cnccn1 (centres unmarked)
4. COc1ccc(CN(C(=O)c2cn(C)nc2C)C2CC2)cn1
5. COc1nn(C)cc1C(=O)N(Cc1ccc(C(F)(F)F)nc1C)C1CC1
6. Cc1nc(C(F)F)c(C(=O)N(Cc2ccncc2)C2CC2)s1
7. Cc1ccc(CN(C(=O)c2c(C)nn(C)c2F)C2CC2)cn1

0.59
2.04
2.04
1.53
2.02
0.58
0.43

Answer for every listed entry: what is its logP? The entries follow.
1. COc1nn(C)cc1C(=O)N(C1CC1)C(C)c1cnc(Cl)c(Cl)c1 (centres unmarked)
2. Cc1nc(C(F)(F)F)ccc1CN(C(=O)c1cn(C)nc1C(F)F)C1CC1
3. COc1ccc(CN(C(=O)c2cn(C)nc2C(F)F)C2CC2)cn1
4. CC(c1cnc(Cl)c(Cl)c1)N(C(=O)c1cn(C)nc1C(F)(F)F)C1CC1 (centres unmarked)
5. Cc1nn(C)cc1C(=O)N(C1CC1)C(C)c1cnccn1 (centres unmarked)

1: 2.29; 2: 2.51; 3: 1.8; 4: 3.14; 5: 1.25

Answer for every listed entry: what is its logP? The entries follow.
1. Cc1cc(C(=O)N(C2CC2)C(C)c2cccnc2Cl)no1 (racemic)
2. Cn1cc(C(=O)N(Cc2cnc(Cl)cc2Cl)C2CC2)c(C(F)F)n1
3. Cc1nn(C)cc1C(=O)N(C1CC1)C(C)c1cccnc1Cl (racemic)
4. Cn1nc(C(=O)N(Cc2ccncc2)C2CC2)c(C(F)(F)F)n1
5. O=C(c1sccc1I)N(Cc1ccc(Cl)cn1)C1CC1
6. COc1ccc(CN(C(=O)c2cc(C)on2)C2CC2)cn1

[2.07, 2.46, 1.58, 1.03, 3.17, 2.08]
